experiment: Retention time of the compound in isocratic acetonitrile/water by HPLC analysis; conditions: buffer
Starred links: 1 amine or outer side, 2 acyl side, 3 side chain; linkers in the order of their positions; H or OH if unused. Non-standard residues stand in square brackets, D forms with d. Residues, ends and D or L forms follow the SMILES beside them. Ile(ψThz) = CC[C@H](C)[C@H](N[*:1])c1nc(C(=O)[*:2])cs1; LeuThz(4-CO) = CC(C)C[C@H](N[*:1])c1nc(C(=O)[*:2])cs1; ValThz = CC(C)[C@H](N[*:1])c1nc(C(=O)[*:2])cs1
metric_name: Retention_time (min)
Please reply with the bare figure in min and do not write the unit itself.

Worked examples follow.
compound: CC[C@H](C)[C@@H]1NC(=O)[C@@H]2CCCN2C(=O)[C@H]([C@@H](C)O)NC(=O)[C@@H]2CCCN2C(=O)[C@H](Cc2ccccc2)NC(=O)[C@H](C)NC(=O)c2csc1n2 (cyclo(AFPTP[Ile(ψThz)]))
Retention_time, min: 1.02
//
compound: CC[C@H](C)[C@@H]1NC(=O)[C@@H]2CCCN2C(=O)[C@H](Cc2ccccc2)NC(=O)[C@H](C)NC(=O)c2csc(n2)[C@H](C(C)C)NC(=O)[C@@H]2CCCN2C1=O (cyclo(AFPIP[ValThz]))
Retention_time, min: 2.03

Attention now turns to another entry.
Query: Retention_time; subject: CC[C@H](C)[C@@H]1NC(=O)[C@@H]2CCCN2C(=O)[C@H](Cc2ccccc2)NC(=O)[C@H](C)NC(=O)c2csc(n2)[C@H](CC(C)C)NC(=O)[C@@H]2CCCN2C1=O (cyclo(AFPIP[LeuThz(4-CO)]))
Reply: 2.87
